system: Pyrenophora teres; assay: In vivo test on Pyrenophora teres (barley net blotch); details: dose of 500 ppm; barley plants; grading 12 days after contamination
Binary call on protection: criterion met from 90% upward, criterion not met beneath that.

Challenge: Has Clc1ccc(-c2nn(Cc3ccccc3)cc2-c2ccncn2)s1 [Example 5] a recorded protection greater than or equal to 90%?
Response given: criterion not met

Challenge: Answer whether protection of CCn1nc(-c2ccc(Cl)s2)c(-c2ccncc2)c1C [Example 146] is greater than or equal to 90%.
Response given: criterion met

Challenge: Answer whether protection of CCn1cc(-c2ccnc(NC(=O)C(C)(C)C)c2)c(-c2ccc(Cl)s2)n1 [Example 255] is greater than or equal to 90%.
Response given: criterion met

Challenge: Quick check, protection >= 90%? C#CCNc1nccc(-c2cn(C(C)C)nc2-c2ccc(Cl)s2)n1 [Example 180]
Response given: criterion not met

Challenge: Test whether the compound CC(C)C(=O)Nc1cc(-c2cn(C)nc2-c2ccc(Cl)s2)ccn1 [Example 288] records protection of 90% or higher.
Response given: criterion met

Challenge: Identify whether the reported protection of the following compound is 90% or greater: ClCCn1cc(-c2ccncc2)c(-c2ccc(Cl)s2)n1 [Example 55]
Response given: criterion not met

Challenge: Check if protection >= 90% (inclusive). Item: CC(=O)N(C(C)=O)c1cc(-c2cnn(/C=C/F)c2-c2ccc(Cl)s2)ccn1 [Example 291]
Response given: criterion met

Challenge: Decide: protection of CC(C)Cn1cc(-c2ccncc2)c(-c2ccc(Cl)s2)n1 [Example 21] >= 90%?
Response given: criterion met

Challenge: Dear colleague, could you confirm whether CCC(=O)Nc1cc(-c2cn(CC(C)C)nc2-c2ccc(Cl)s2)ccn1 [Example 396] has protection at or above 90%?
Response given: criterion not met

Challenge: Identify whether the reported protection of the following compound is 90% or greater: CCC(C)n1cc(-c2ccnc(NC(=O)c3cccs3)c2)c(-c2ccc(Cl)s2)n1 (stereo not shown) [Example 238]
Response given: criterion not met

Challenge: Determine whether this compound has protection no lower than 90%: CC(C)n1cc(-c2ccnc(NC(=O)C(C)(C)O)c2)c(-c2ccc(Cl)s2)n1 [Example 211]
Response given: criterion met

Challenge: Kindly determine if protection recorded for CCC(C)n1cc(-c2ccnc(NC3CC3)n2)c(-c2ccc(Cl)s2)n1 (stereo not shown) [Example 195] is above or exactly 90%.
Response given: criterion met

Challenge: Is protection at least 90%? Consider CC(C)OC(=O)Nc1cc(-c2cn(C(C)C)nc2-c2ccc(Cl)s2)ccn1 [Example 242]
Response given: criterion not met

* * *

Please respond with reported protection for every item in the list.
system: Puccinia recondita; assay: In vivo test on Puccinia recondita (brown rust); conditions: dose of 500 ppm; wheat plants; grading 10 days after contamination
Numeric answer only, unit % assumed.

Challenge: Report protection, nothing else, for this compound: CCC(CC)n1cc(-c2ccncc2)c(-c2ccc(Cl)s2)n1
Response given: 88

Challenge: Output measured protection for this item: CCC(C)n1cc(-c2ccncc2)c(-c2ccc(Cl)s2)n1 (stereo not drawn)
Response given: 86

Challenge: Answer with reported protection of C#CCn1cc(-c2ccncc2)c(-c2ccc(Cl)s2)n1
Response given: 71

* * *

Could you please report measured log p for the items listed next?
settings: pH 2.3
Marks after values point to notes of the source that are not given here.

Challenge: Give me measured log p, please, for this molecule: Clc1ccc(-c2n[nH]cc2-c2ccncn2)s1
Response given: 1.82^[a];

Challenge: Quickly give me recorded log p for CC(C)n1cc(-c2ccnc(NC3CC3)n2)c(-c2ccc(Cl)s2)n1
Response given: 2.59^[a]

Challenge: Give the value of log p reported for the following: CC(C)Cn1cc(-c2ccnc(NCc3ccccc3)n2)c(-c2ccc(Cl)s2)n1
Response given: 4.31^[a]

Challenge: Quickly give me recorded log p for CC(C)n1cc(-c2ccnc(NC3COC3)n2)c(-c2ccc(Cl)s2)n1
Response given: 2.7^[a]

Challenge: Please report log p for the following molecule: CCC(C)n1ncc(-c2ccnc(SC)n2)c1-c1ccc(Cl)s1 (centres unmarked)
Response given: 4.76^[a]

Challenge: Using known records, supply log p for CC(C)Cn1cc(-c2ccnc(NC(=O)C(C)C)n2)c(-c2ccc(Cl)s2)n1
Response given: 3.67^[a]

Challenge: Give the reported log p for this molecule. CC(C)C(=O)Nc1nccc(-c2cn(C(C)C)nc2-c2ccc(Cl)s2)n1
Response given: 3.29^[a]

Challenge: Return log p for the following molecule: CC(C)Cn1cc(-c2ccnc(Cl)c2)c(-c2ccc(Cl)s2)n1
Response given: 4.85^[a]

Challenge: Give the reported log p for this molecule. CCC(C)n1cc(-c2ccnc(NC(C)COC)n2)c(-c2ccc(Cl)s2)n1 (centres unmarked)
Response given: 3.21^[a]

Challenge: Provide measured log p value, entry: CCC(=O)Nc1nccc(-c2cn(C(C)C)nc2-c2ccc(Cl)s2)n1
Response given: 3.04^[a]

Challenge: Tell me measured log p for CCC(C)n1cc(-c2ccnc(NCC3CC3)n2)c(-c2ccc(Cl)s2)n1 (centres unmarked) please.
Response given: 3.41^[a]

* * *

details: pH 2.7
Marks after values point to notes of the source that are not given here.
Property measured: log p

Challenge: Please supply the value of reported log p for the item CC(C)=CCn1cc(-c2ccncc2)c(-c2ccc(F)s2)n1
Response given: 1.45^[b]

Challenge: Read off the recorded log p for CC(C)n1cc(-c2ccnc(NC(=O)[C@H](C)O)c2)c(-c2ccc(Cl)s2)n1
Response given: 2.75^[b]

Challenge: Specify log p for CCn1cc(-c2ccnc(NS(=O)(=O)N(C)C)c2)c(-c2ccc(Cl)s2)n1 and stop.
Response given: 2.59^[b]

Challenge: Quote log p reported for N#CCCn1cc(-c2ccncc2)c(-c2ccc(F)s2)n1 please.
Response given: 1.12^[b]

* * *

test: physchem; details: pH 2.7
Property measured: log p
Write the number on its own, no unit after it.

Challenge: Please give measured log p of the following entry: CC(C)Cn1ncc(-c2ccnc(Cl)c2)c1-c1ccc(Cl)s1
Response given: 4.62

Challenge: Output log p of CC(C)Cn1cc(-c2ccnc(N(C(=O)C3CC3)C(=O)C3CC3)c2)c(-c2ccc(Cl)s2)n1
Response given: 4.75

Challenge: Return the recorded log p value; entry: CC(C)n1nccc1-c1cc(Br)cs1
Response given: 3.44

Challenge: Give the measured log p for CCn1nccc1-c1cc(C)cs1
Response given: 2.68

Challenge: // Input: Cc1csc(C(=O)C=CN(C)C)c1 . Output its log p only.
Response given: 1.65

Challenge: Indicate the recorded log p value for this compound: CCCc1nn(C)c(-c2sccc2C)c1I
Response given: 4.27

Challenge: Supply log p value. Item: Cc1csc(-c2cc[nH]n2)c1
Response given: 1.72

Challenge: Give the reported value of log p for this record: CC(C)Cn1cc(-c2ccncc2)c(-c2ccc(C#N)s2)n1
Response given: 1.74

Challenge: Give the reported value of log p for this record: CSc1nccc(-c2c[nH]nc2-c2ccc(Cl)s2)n1
Response given: 2.78

* * *

tested on: Leptosphaeria nodorum; assay: Leptosphaeria nodorum test (wheat) / protective; assay type: in vivo; details: 500 ppm active compound, protective spray, evaluated 7-9 days after inoculation
Hi there, I'd appreciate the recorded efficacy for every entry that follows.
Reply with just the number (in %).

Challenge: Answer with efficacy of Cc1c(-c2ccncc2)c(-c2ccc(Cl)s2)nn1C(C)C measured for Leptosphaeria nodorum.
Response given: 95

Challenge: Recall the reported efficacy of CC(C)Cn1cc(-c2ccncc2)c(-c2ccc(Br)s2)n1 on Leptosphaeria nodorum and write it down.
Response given: 94

Challenge: With Leptosphaeria nodorum as the test system, provide measured efficacy for this compound: CC(=O)Nc1cc(-c2cnn(/C=C/F)c2-c2ccc(Cl)s2)ccn1
Response given: 70

* * *

test system: Alternaria solani; test: Alternaria test (tomato) / protective; type: in vivo; conditions: 500 ppm active compound, protective spray, evaluated 7 days after inoculation
Property measured: efficacy (%)
Use % as the unit, but write only the number.

Challenge: Supply efficacy value. Item: CC(=O)N(C(C)=O)c1cc(-c2cnn(/C=C/F)c2-c2ccc(Cl)s2)ccn1
Response given: 90

Challenge: Identify efficacy associated with the compound Fc1ccc(-c2nn(CC(F)F)cc2-c2ccncc2)s1
Response given: 100

Challenge: Supply measured efficacy of CC(C)OC(=O)Nc1cc(-c2cn(C(C)C)nc2-c2ccc(Cl)s2)ccn1 in your reply.
Response given: 90

Challenge: Identify efficacy associated with the compound CC(C)Cn1cc(-c2ccnc(NC(=O)C(C)C)c2)c(-c2ccc(Cl)s2)n1
Response given: 100

Challenge: Please report the measured efficacy for CCn1cc(-c2ccncc2)c(-c2ccc(Br)s2)n1
Response given: 100

Challenge: Item CC#Cc1c(-c2ccncc2)c(-c2ccc(Cl)s2)nn1C(C)C : provide efficacy
Response given: 90

Challenge: Answer with the recorded efficacy of CC(=O)N(C(C)=O)c1cc(-c2cn(/C=C/F)nc2-c2ccc(Cl)s2)ccn1 only.
Response given: 90

Challenge: Let me know recorded efficacy for CC(=O)N(C(C)=O)c1cc(-c2cn(C)nc2-c2ccc(Cl)s2)ccn1 , thanks.
Response given: 95

Challenge: Return efficacy for the following compound: Clc1ccc(Cn2cc(-c3ccncc3)c(-c3ccc(Cl)s3)n2)s1
Response given: 78

Challenge: Provide measured efficacy value, entry: Cn1cc(-c2ccnc(NC(=O)Cc3ccccc3)c2)c(-c2ccc(Cl)s2)n1
Response given: 90
